Reported values of growth for individual entries
- System: DU-145 prostate
- PROCEDURE_DETAILS: NCI-60 one-dose screen, 48 h (100 = growth as untreated, 0 = no growth, -100 = all killed)
- MEASUREMENT_SETUP: 10 µM
The panel holds about 83,000 compounds, 20% with a hit somewhere; the sample as a whole holds those more often.
PROPERTY_NAME: growth (%)

| COMPOUND | PROPERTY_NAME | READING |
| --- | --- | --- |
| NC(=O)c1ccc(Br)o1 | growth | 109 |
| COC(=O)[C@]12CC[C@@H](C)[C@H](C)[C@@H]1C1=CC[C@@H]3[C@@]4(C)C[C@@H](O)[C@H](O)[C@@](C)(CO)[C@@H]4[C@H](O)C[C@@]3(C)[C@]1(C)CC2 | growth | -82.5 |
| CN(C)CCCN(Cc1ccccc1O)C(=S)Nc1ccc(Cl)cc1 | growth | 121 |
| COc1ccc(S(=O)(=O)Nc2cc(/C=C\c3cc(OC)c(OC)c(OC)c3)ccc2OC)cc1 | growth | -12.8 |
| Cc1cc(=O)oc2cc(OCc3cn(CC(O)CO)nn3)ccc12 (stereo not given) | growth | 103 |
| COc1cc(OC)cc(N2CCN(C(=O)Nc3nc4cc(F)ccc4nc3OC)CC2)c1 | growth | 1 |
| CC1=CSC2=NC(c3ccc(Cl)c(Cl)c3)=CC(c3ccc(Cl)cc3)N12 (stereo not given) | growth | 20.5 |
| Cc1nc(N)sc1Sc1nc2ccc(Cl)cc2c(=O)n1-c1ccc(Oc2ccccc2)cc1 | growth | 92.5 |
| COc1cc2ccnc(C=O)c2cc1OC | growth | 69.8 |
| O=C(Nc1cccc(C(F)(F)F)c1)C(Cl)Cl | growth | 98.3 |
| Cc1ncc([N+](=O)[O-])n1CCOc1ccc(C(=O)/C=C/c2ccc(C(F)(F)F)cc2)cc1 | growth | 56.4 |
| O=S(=O)(NCl)c1ccccc1 | growth | 106 |
| CN(C)c1ccc2cc(-c3cc4c(oc3=O)-c3ccccc3OC4O)c(=O)oc2c1 (stereo not given) | growth | 11 |
| O=CNc1c(Cl)cc2c(c1Cl)Cc1cc([N+](=O)[O-])ccc1-2 | growth | 79.1 |
| CCOC(=O)c1cc2c(n1Cc1cccc(OC)c1)-c1oncc1CC2 | growth | 48.4 |
| COc1ccc2nc(-c3ccccc3)cc(C(C)=O)c2c1 | growth | 107 |
| Nc1nc2c(ncn2C2OC3COP(=O)(O)OC4C(COP(=O)(O)OC2C3O)OC(n2cnc3c(N)ncnc32)C4O)c(=O)[nH]1 (stereo not given) | growth | 107 |
| COc1cc(-c2cc(-c3cc(OC)c(OC)c(OC)c3)nc3nc(N)[nH]c(=O)c23)ccc1Oc1ccnc2cc(Cl)ccc12 | growth | 33.9 |
| Cc1ccc(C2C=C(c3ccc(Cl)cc3)N=C3SC=CN32)c(Br)c1 (stereo not given) | growth | 89.1 |
| CS(=O)(=O)Nc1ccc([N+](=O)[O-])cc1Oc1ccccc1 | growth | 100 |
| CCOc1nc(-c2ccccc2)cc2c(O)c(C(=O)NC(C)C)[nH]c(=O)c12 | growth | 107 |
| CC(=O)[C@H]1CC[C@H]2[C@@H]3CC[C@@H]4CC=C(C=O)C[C@]4(C)[C@H]3CC[C@]12C | growth | 98.7 |
| CCN(CCCNC(=O)Cc1cc(=O)oc2cc(N(C)C)ccc12)CCNc1ccnc2cc(Cl)ccc12 | growth | 109 |
| COc1ccc(S(=O)(=O)Nc2ccc(OCc3nnc(-c4ccc(Cl)cc4)o3)c(F)c2)cc1 | growth | 76.7 |
| O=C(COCc1c(-c2ccccc2)no[n+]1[O-])Nc1nc(-c2ccc(Cl)cc2)cs1 | growth | 109 |
| CCOC(=O)c1c(O)c2cc(-c3ccccc3)nc(OCC)c2c(=O)n1C | growth | 107 |
| O=S(=O)(NCCO)c1ccc(OCCOc2ccc(S(=O)(=O)NCCO)cc2)cc1 | growth | 107 |
| COc1cc(-c2n/c(=C\c3c(O)[nH]c4ccccc34)cc3c2=Nc2ccccc2-3)cc(OC)c1OC | growth | 11.5 |
| O=C(N/N=C/c1ccccc1O)c1ccccc1 | growth | 32.4 |
| O=C(c1ccc(Cl)cc1)c1no[n+]([O-])c1C(=O)c1ccc(Cl)cc1 | growth | 94.1 |
| CCOC(=O)C(=O)Cc1cccnn1 | growth | 113 |
| CCOC(=O)/C(C#N)=C(/C)C1CC1 | growth | 108 |
| COC(=O)[C@]12CC[C@@H](C)[C@H](C)[C@@H]1C1=CC[C@@H]3[C@@]4(C)C/C(=N\O)[C@H](O)[C@@]5(C)COC(=C45)C[C@@]3(C)[C@]1(C)CC2 | growth | -94.8 |
| Cc1nc(Nc2nc3ccccc3o2)nc(-c2cccc([N+](=O)[O-])c2)c1C(=O)Nc1ccc(F)c(Cl)c1 | growth | 18.6 |
| O=C(/C=C/c1nnc2n(Cc3ccccc3)c(=O)c3c4c(sc3n12)CCCC4)c1ccccc1 | growth | 121 |
| CCc1nn2c(-c3cc(OC)c(OC)c(OC)c3)c(-c3cc(OC)c(OC)c(OC)c3)nc2s1 | growth | 88.1 |
| COC1OC2COC(c3ccccc3)OC2C(=O)C1NC(=O)c1ccccc1 (stereo not given) | growth | 95.6 |
| C[C@@H]1N=C(c2ccc(Br)cc2)Nc2nc3ccccn3c2C1=O | growth | 87.7 |
| COc1ccc(-c2nnc(COc3ccc(NC(=O)Nc4cccc(C(F)(F)F)c4)cc3F)o2)cc1 | growth | 71.9 |
| O=C1/C(=C/c2ccc(O)cc2)Oc2ccc(Cl)cc21 | growth | 114 |

* * *

- System: MOLT-4 leukemia
- PROCEDURE_DETAILS: NCI-60 one-dose screen, 48 h (100 = growth as untreated, 0 = no growth, -100 = all killed)
- MEASUREMENT_SETUP: 10 µM
The panel holds about 83,000 compounds, 20% with a hit somewhere; the sample as a whole holds those more often.
Rule: yes (1) for growth not less than 90%, no (0) for anything less.

| COMPOUND | ASSIGNED_CATEGORY |
| --- | --- |
| O=C1/C(=C/c2ccc(O)cc2)Oc2ccc(Cl)cc21 | no (0) |
| S=c1c2ncccc2c(-c2ccccn2)nn1Cc1ccccn1 | yes (1) |
| C#CCNCCCN1C(=O)c2ccc3c4c(ccc(c24)C1=O)C(=O)N(CCCNCC#C)C3=O | no (0) |
| CC(=O)Nc1nc(C)c(C(=O)N/N=C/c2cccn2C)s1 | yes (1) |
| CCOC(=O)CSC(=S)SCC(=O)OCC | yes (1) |
| COc1cc(OC)cc(-c2ccc(-c3ccc(C(=N)N)cn3)o2)c1 | no (0) |
| COc1cccc(C(=O)N(c2ccc(F)c(F)c2)C(C(=O)NC(C)(C)C)c2cc3c(C)cc(C)cc3nc2Cl)c1 (stereo unspecified) | no (0) |
| CC(Oc1ccc(Cl)cc1)c1ccccc1 (stereo unspecified) | no (0) |
| N#CN1CC[C@H](C(=O)Nc2ncc(-c3ccncc3)s2)C1 | no (0) |
| CCCc1c(CC)c(=N)c2ccccc2n1C | no (0) |

* * *

- Test system: MDA-MB-231 breast
- PROCEDURE_DETAILS: NCI-60 one-dose screen, 48 h (100 = growth as untreated, 0 = no growth, -100 = all killed)
- MEASUREMENT_SETUP: 10 µM
Compounds without any hit were thinned out: in the full panel of roughly 83,000, 20% have a hit.

| MOLECULE | TARGET_OR_SYSTEM | growth (%) |
| --- | --- | --- |
| O=C(CSc1nnc(-c2ccc(Cl)cc2)o1)c1ccccc1 | MDA-MB-231 breast | 95.2 |
| CCOc1nc(-c2ccccc2)cc2c(O)c(C(=O)NC(C)C)[nH]c(=O)c12 | MDA-MB-231 breast | 106 |
| CCCC(C)c1ccc(OCCCCCCN2CCNCC2)cc1 (configuration not stated) | MDA-MB-231 breast | -0.569 |
| COc1cc(N=C2C(=O)N(Cc3ccccc3)c3ccccc32)cc(OC)c1OC | MDA-MB-231 breast | 105 |
| O=C1/C(=C/c2ccc(O)cc2)Cc2ccc(Cl)cc21 | MDA-MB-231 breast | 61.5 |
| CN(C1c2ccccc2Oc2ccccc21)S(=O)(=O)c1cc(Cl)ccc1Cl | MDA-MB-231 breast | 69.7 |
| CCN1CCN(c2nc(NNC(=O)c3cccc(OC)c3)nc(N3CCN(C(c4ccccc4)c4ccccc4)CC3)n2)CC1 | MDA-MB-231 breast | 71.9 |
| O=NN(CC(=O)N/N=C/C=C\c1ccccc1)CC(=O)N/N=C/C=C/c1ccccc1 | MDA-MB-231 breast | 89.2 |
| COc1cc(-c2nc3ccccc3[nH]2)ccc1OCc1nnc(-c2ccc(Br)cc2)o1 | MDA-MB-231 breast | 76.2 |
| COCCOC(=O)NC(=O)Nc1ccc(C(=O)c2ccc(Cl)cc2)cc1 | MDA-MB-231 breast | 49.8 |
| COc1ccccc1S(=O)(=O)Nc1ccc2c(c1)CN(C)C(=O)N2 | MDA-MB-231 breast | 54.7 |
| O=C(NNc1nc(N2CCCC2)nc(N2CCCC2)n1)c1ccccc1 | MDA-MB-231 breast | 100 |
| O=C(NNC(=O)c1ccncc1)Nc1ccc([N+](=O)[O-])cc1 | MDA-MB-231 breast | 109 |
| Cc1ccccc1[P+](Cc1ccccc1)(c1ccccc1)c1ccccc1 | MDA-MB-231 breast | 40.7 |
| C=CCN1C(=O)/C(=C\c2ccc3c(c2)CCC3)SC1=S | MDA-MB-231 breast | 98.8 |
| CCCCOCC(=O)NC(NP(=O)(N(C)C)N(C)C)C(Cl)(Cl)Cl (configuration not stated) | MDA-MB-231 breast | 121 |
| N#CC1C=Cc2c(ccc3ccccc23)N1C(=O)c1ccccc1 (configuration not stated) | MDA-MB-231 breast | 24.4 |
| CCOC(=O)c1cc2c(n1Cc1cc(OC)cc(OC)c1)-c1oncc1CC2 | MDA-MB-231 breast | 30.4 |
| COC(=O)CCCCCCCCC(C)c1ccc(C(C)=O)cc1 (configuration not stated) | MDA-MB-231 breast | 119 |
| COc1cc(CSc2nc3ccc(C)cc3c(=O)n2Cc2ccccc2)cc(OC)c1OC | MDA-MB-231 breast | 44.4 |
| CCc1ccc(Nc2cc(C)nc3nc(C)nn23)cc1 | MDA-MB-231 breast | -58.3 |
| O=C(O)CCCN1C(=O)NC2(C1=O)c1ccccc1-c1ccccc12 | MDA-MB-231 breast | 107 |
